Where do the numbers come from? From patent US20230406884A1.

# systemName: T1, recombinant integrin α4β7 (R&D Systems, 5397-A3-050) (UniProt P13612 34-970; P26010 20-723)
# T1 construct: coated on the ELISA plate at 1 µg/ml; also called a4b7; α4β7 integrin
# T1 sequence (P13612 34-970, chain 1 of 2): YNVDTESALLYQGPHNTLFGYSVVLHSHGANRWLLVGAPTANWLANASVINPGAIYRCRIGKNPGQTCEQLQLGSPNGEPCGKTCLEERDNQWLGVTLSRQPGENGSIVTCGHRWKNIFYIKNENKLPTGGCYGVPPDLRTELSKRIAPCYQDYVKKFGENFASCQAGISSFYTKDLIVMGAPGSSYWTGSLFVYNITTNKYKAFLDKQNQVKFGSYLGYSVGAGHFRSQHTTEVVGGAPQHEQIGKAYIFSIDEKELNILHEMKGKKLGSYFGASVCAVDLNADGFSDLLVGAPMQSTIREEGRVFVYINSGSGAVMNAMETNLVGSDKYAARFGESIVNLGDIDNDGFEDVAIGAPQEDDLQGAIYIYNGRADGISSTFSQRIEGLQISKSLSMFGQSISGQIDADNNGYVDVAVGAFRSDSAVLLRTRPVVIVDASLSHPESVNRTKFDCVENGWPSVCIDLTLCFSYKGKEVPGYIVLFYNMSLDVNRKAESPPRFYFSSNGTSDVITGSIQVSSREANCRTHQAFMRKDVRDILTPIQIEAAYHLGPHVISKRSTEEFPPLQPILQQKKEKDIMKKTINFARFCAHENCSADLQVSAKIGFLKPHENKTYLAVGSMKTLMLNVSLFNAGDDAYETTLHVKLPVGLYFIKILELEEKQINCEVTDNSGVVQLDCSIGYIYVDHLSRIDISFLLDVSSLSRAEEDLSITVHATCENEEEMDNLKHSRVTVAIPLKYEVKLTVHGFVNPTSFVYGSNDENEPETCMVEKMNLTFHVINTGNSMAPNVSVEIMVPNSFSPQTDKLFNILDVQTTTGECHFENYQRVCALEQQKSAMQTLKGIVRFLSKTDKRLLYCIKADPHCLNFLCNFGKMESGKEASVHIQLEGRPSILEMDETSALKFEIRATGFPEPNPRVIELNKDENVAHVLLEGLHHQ
# T1 sequence (P26010 20-723, chain 2 of 2): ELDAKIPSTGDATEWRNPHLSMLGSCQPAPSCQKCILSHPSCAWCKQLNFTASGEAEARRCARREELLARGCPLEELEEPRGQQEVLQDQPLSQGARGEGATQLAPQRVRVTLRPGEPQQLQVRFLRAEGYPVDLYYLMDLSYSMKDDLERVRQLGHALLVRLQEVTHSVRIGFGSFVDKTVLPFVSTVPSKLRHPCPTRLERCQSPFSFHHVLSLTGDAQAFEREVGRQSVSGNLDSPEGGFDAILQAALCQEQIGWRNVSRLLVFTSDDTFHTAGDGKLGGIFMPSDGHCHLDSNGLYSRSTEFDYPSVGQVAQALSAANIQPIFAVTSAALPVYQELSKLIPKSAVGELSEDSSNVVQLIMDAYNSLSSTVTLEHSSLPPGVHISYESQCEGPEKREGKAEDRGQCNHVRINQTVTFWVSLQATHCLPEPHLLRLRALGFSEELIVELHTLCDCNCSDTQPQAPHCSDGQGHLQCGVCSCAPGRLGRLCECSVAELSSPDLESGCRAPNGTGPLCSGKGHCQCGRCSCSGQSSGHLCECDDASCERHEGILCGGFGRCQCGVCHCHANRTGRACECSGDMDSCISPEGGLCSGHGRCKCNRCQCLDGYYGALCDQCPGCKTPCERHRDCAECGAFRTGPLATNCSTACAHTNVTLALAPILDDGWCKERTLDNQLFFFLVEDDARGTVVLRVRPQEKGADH
# methodDescription: α4β7-MAdCAM-1 competition ELISA
Bridges are numbered along the chain shown (N, C = ends). [ ]: non-standard residue; d: D form. dPhe(4-CH2NH2) = NCc1ccc(C[C@@H](N)C(=O)O)cc1; Phe(4-CH2NH2) = NCc1ccc(C[C@H](N)C(=O)O)cc1; β3hK = NCCCC[C@H](N)CC(=O)O; dNle = CCCC[C@@H](N)C(=O)O
The following binders are shown together with reported IC50 values.
# value in nM; strip the unit string

| binder | IC50 [nM] |
| --- | --- |
| PYXLDT (X^z dMeArg, macrocycle of formula (I)) [Compound No. 157] | 67 |

The reported value for PY[dNle]LDT (bridge N-C; not fully specified (bridges); also: macrocycle closed by non-peptide linker -NH-CH(CH3)-CH(C(O)NH-tBu)- between Pro N and C-terminal C, macrocycle of formula (I)) [Compound No. 155] in terms of IC50 is 54

The reported value for PYXXDT (X^z dPip; X^1 tertbutylAla, macrocycle of formula (I)) [Compound No. 150] in terms of IC50 is 54

The reported value for P[Phe(4-CH2NH2)][β3hK]LDI (bridge N-C; not fully specified (bridges); printed as Pro X1 X2 Leu Asp Ile, macrocycle of formula (I)) [Compound No. 215] in terms of IC50 is 33

The reported value for cyclo(P[dPhe(4-CH2NH2)][β3hK]LDI) (also: macrocycle closed by non-peptide linker -NH-CH(CH3)-CH(C(O)NH-tBu)- between Pro1 N and C-terminal C, macrocycle of formula (I)) [Compound No. 253] in terms of IC50 is 69
